Test system: SEM cells
Assay: cell viability relative to DMSO control; higher = less cytotoxic
Conditions: HPLM + 10% dialyzed FBS; 48 h; 46.1 µM
ASSAY READOUT: cell viability

As a guide, the following entries are already answered.
| MOLECULE | RECORDED VALUE |
| --- | --- |
| CC(C)C[C@H](NC(=O)[C@H](CCc1ccccc1)NC(=O)CN1CCOCC1)C(=O)N[C@@H](Cc1ccccc1)C(=O)N[C@@H](CC(C)C)C(=O)[C@@]1(C)CO1 | 1.47% |
| C\C1=C(\C=C(C#N)/C(=O)N1)C2=C[N]3C=CN=C3C=C2 | 94.7% |
| N[C@H](CSC(c1ccccc1)(c1ccccc1)c1ccccc1)C(=O)O | 14.7% |
| O=C(Nc1ccccc1-c1cn2c(CN3CCNCC3)csc2n1)c1cnc2ccccc2n1 | 1.98% |
| Nc1nc(N)c2nc(CNc3ccc(C(=O)NC(CCC(=O)O)C(=O)O)cc3)cnc2n1 (stereo not drawn) | 46.5% |
| Cc1cc(C(C)(C)C)c(O)c(C)c1CC1=NCCN1 | 62.5% |

Exercise: Please report the recorded cell viability for CCC(C)(Oc1ccc(C2(c3ccc(OC(C)(CC)C(=O)O)cc3)CCCCC2)cc1)C(=O)O (stereo not drawn) .
Solution: 77.9%

Exercise: Moving on to the next molecule: CC(C)C[C@@H](C=O)NC(=O)[C@H](CC(C)C)NC(=O)[C@H](CC(C)C)NC(=O)OCc1ccccc1
Solution: 8.11%
